biological target: Histone-lysine N-methyltransferase EHMT2 (Homo sapiens); experiment: Inhibition of G9a (unknown origin)
ENDPOINT_NAME: IC50 (nM)
Just the number in nM, nothing appended.

For this molecule ( C=CC(=O)Nc1cccc(-c2nc(NC3CCN(C)CC3)c3cc(OC)c(OC)cc3n2)c1 ), measured IC50 is 1220

====

assay: Cytotoxicity against human L02 cells assessed as reduction in cell viability incubated for 2 days by MTT assay; format: toxicity, cell-based
# IC50 at 2 days listing for each entry below
Write the figure, then the unit, nothing else.

Worked set:
COc1cc2nc(N3CCCN(C)CC3)nc(NC3CCN(Cc4ccccc4)CC3)c2cc1OC :: 4.28 µM
C=CC(=O)Nc1cccc(-c2nc(NC3CCN(C)CC3)c3cc(OC)c(OC)cc3n2)c1 :: 10.3 µM

Now for another entry.
For this compound ( COc1cc2c(NC3CCN(C(C)C)CC3)nc(N3CCC(F)(F)CC3)nc2cc1OCCCN1CCCC1 ), measured IC50 at 2 days is 6.99 µM

====

# inhibition listing for each entry below
Target: Histone-lysine N-methyltransferase EHMT2 (Homo sapiens) (UniProt Q96KQ7)
Sequence (whole entry): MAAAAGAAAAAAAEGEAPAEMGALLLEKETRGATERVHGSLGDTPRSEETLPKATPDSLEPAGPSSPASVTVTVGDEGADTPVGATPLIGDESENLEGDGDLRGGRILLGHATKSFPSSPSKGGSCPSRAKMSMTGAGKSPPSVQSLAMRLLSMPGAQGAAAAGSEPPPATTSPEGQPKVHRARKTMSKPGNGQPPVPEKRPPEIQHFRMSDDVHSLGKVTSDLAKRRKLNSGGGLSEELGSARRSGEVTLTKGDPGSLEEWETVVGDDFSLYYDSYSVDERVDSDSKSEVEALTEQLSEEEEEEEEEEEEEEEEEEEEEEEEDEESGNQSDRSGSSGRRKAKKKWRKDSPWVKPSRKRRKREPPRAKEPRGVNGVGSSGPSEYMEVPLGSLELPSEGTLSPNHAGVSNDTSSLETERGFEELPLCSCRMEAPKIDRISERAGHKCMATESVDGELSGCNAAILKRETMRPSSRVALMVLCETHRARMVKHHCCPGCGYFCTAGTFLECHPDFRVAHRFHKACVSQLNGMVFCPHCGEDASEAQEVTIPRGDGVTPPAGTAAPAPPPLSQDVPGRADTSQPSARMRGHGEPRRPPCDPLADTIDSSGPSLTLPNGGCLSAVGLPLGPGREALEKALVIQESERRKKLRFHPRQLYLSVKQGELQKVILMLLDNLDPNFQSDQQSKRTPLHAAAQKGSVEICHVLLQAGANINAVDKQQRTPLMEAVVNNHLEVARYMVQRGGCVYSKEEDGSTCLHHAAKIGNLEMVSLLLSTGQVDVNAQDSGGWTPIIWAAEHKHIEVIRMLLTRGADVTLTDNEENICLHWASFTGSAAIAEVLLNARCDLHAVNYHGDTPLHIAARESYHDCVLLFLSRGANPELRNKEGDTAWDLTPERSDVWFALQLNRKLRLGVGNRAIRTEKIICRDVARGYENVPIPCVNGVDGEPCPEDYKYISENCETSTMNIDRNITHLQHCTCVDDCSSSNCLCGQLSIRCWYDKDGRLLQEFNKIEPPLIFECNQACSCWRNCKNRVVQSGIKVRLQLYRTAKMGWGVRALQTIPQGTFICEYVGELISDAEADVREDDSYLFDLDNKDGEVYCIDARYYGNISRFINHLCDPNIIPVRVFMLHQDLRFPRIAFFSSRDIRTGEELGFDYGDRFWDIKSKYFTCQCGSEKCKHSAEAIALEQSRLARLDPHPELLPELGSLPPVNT
Test: Inhibition of G9a (unknown origin) at 1 uM by AlphaLISA immunodetection assay relative to control
Just the number in %, nothing appended.

Worked set:
C=CC(=O)NC/C=C/c1nc(NC2CCN(Cc3ccccc3)CC2)c2cc(OC)c(OC)cc2n1 :: 60
C=CC(=O)Nc1cccc(-c2nc(NC3CCN(C(C)C)CC3)c3cc(OC)c(OC)cc3n2)c1 :: 26
C=CC(=O)NC/C=C/c1nc(NC2CCN(C(C)C)CC2)c2cc(OC)c(OC)cc2n1 :: 56
C=CC(=O)Nc1cccc(-c2nc(NC3CCN(C)CC3)c3cc(OC)c(OC)cc3n2)c1 :: 96
C=CC(=O)N1CC=C(c2nc(NC3CCN(C(C)C)CC3)c3cc(OC)c(OC)cc3n2)C1 :: 24

For this compound ( C=CC(=O)N1CCC=C(c2nc(NC3CCN(C)CC3)c3cc(OC)c(OC)cc3n2)C1 ), measured inhibition is 98

For this compound ( C=CC(=O)N1CC=C(c2nc(NC3CCN(Cc4ccccc4)CC3)c3cc(OC)c(OC)cc3n2)C1 ), measured inhibition is 38

For this compound ( C=CC(=O)N1CC=C(c2nc(NC3CCN(C)CC3)c3cc(OC)c(OC)cc3n2)C1 ), measured inhibition is 98

For this compound ( C=CC(=O)N1CCC=C(c2nc(NC3CCN(C(C)C)CC3)c3cc(OC)c(OC)cc3n2)C1 ), measured inhibition is 7

The reported measurements were obtained from ChEMBL document CHEMBL5634121.
